METHOD NOTES: Cytotoxicity against human HeLa cells expressing CD4-LTR by XTT assay
Assay type: cell-based
MEASUREMENT SETUP: read-out: TC50 (the source's name)
PROPERTY: CC50
Please report the result as a number followed by the unit.

Prompt: # lookup: CC50 of CCc1c(C(=O)c2cc(C)cc(C)c2)n(CC2CCCCC2)c(=O)[nH]c1=O
Completion: 1090 µM

Further cases:
Prompt: Request the reported CC50 associated with CCc1c(Oc2cc(C)cc(C)c2)n(CC2=CCCC2)c(=O)[nH]c1=O
Completion: 62.9 µM

Prompt: Would you mind telling me what CC50 value was observed for CC(C)c1c(C(=O)c2ccccc2)n(CC2CC=CC2)c(=O)[nH]c1=O ?
Completion: 1180 µM

Prompt: Need CC50 of CCc1c(Sc2cc(C)cc(C)c2)n(CC2CC=CC2)c(=O)[nH]c1=O , thanks.
Completion: 38.9 µM

Prompt: Look up CC50 for this molecule: CCc1c(Sc2cc(C)cc(C)c2)n(CC2CCCC2)c(=O)[nH]c1=O
Completion: 222 µM

Prompt: Which CC50 value belongs to Cc1cc(C)cc(Oc2c(C(C)C)c(=O)[nH]c(=O)n2Cc2ccccc2)c1 ?
Completion: 38.2 µM

Prompt: Report CC50 for Cc1cc(C)cc(C(=O)c2c(C(C)C)c(=O)[nH]c(=O)n2CC2CCCC2)c1 please.
Completion: 16.6 µM

Prompt: // query CC50 value for entry Cc1cc(C)cc(Sc2c(C(C)C)c(=O)[nH]c(=O)n2CC2=CCCC2)c1
Completion: 29.4 µM
